In this section we review reported Level of intensity of expression in log2 measured by high-throughput sequencing, FC values for a set of substances.
Tested on: human airway epithelial cells (HAECs)
Assay Method Text: High-throughput sequencing (HTS) of miRNAs at four stages of differentiation of HAECs
Condition Notes: stage FC; Table VI
The reply should be a number in log2, with the unit left off.

Substance	Subject Of Test	Measure Unit	Val
hsa-miR-193b: human miRNA, SEQ ID No. 14 (AACUGGCCCUCAAAGUCCCGCU; expressed or natural sequence; listed as Homo sapiens)	human airway epithelial cells (HAECs)	log2	11.19
hsa-miR-449a: human miRNA, SEQ ID No. 46 (UGGCAGUGUAUUGUUAGCUGGU; expressed or natural sequence; listed as Homo sapiens)	human airway epithelial cells (HAECs)	log2	14.90
hsa-miR-125a-5p: human miRNA, SEQ ID No. 3 (UCCCUGAGACCCUUUAACCUGUGA; expressed or natural sequence; listed as Homo sapiens)	human airway epithelial cells (HAECs)	log2	13.29
hsa-miR-25: human miRNA, SEQ ID No. 27 (CAUUGCACUUGUCUCGGUCUGA; expressed or natural sequence; listed as Homo sapiens)	human airway epithelial cells (HAECs)	log2	9.74
hsa-let-7e: human miRNA, SEQ ID No. 160 (UGAGGUAGGAGGUUGUAUAGUU; expressed or natural sequence; listed as Homo sapiens)	human airway epithelial cells (HAECs)	log2	7.53

Ask: Tell me its Level of intensity of expression in log2 measured by high-throughput sequencing, FC on human airway epithelial cells (HAECs): hsa-miR-365: human miRNA, SEQ ID No. 41 (UAAUGCCCCUAAAAAUCCUUAU; expressed or natural sequence; listed as Homo sapiens)
Result: 0.01

Ask: Tell me its Level of intensity of expression in log2 measured by high-throughput sequencing, FC on human airway epithelial cells (HAECs): hsa-miR-30b: human miRNA, SEQ ID No. 33 (UGUAAACAUCCUACACUCAGCU; expressed or natural sequence; listed as Homo sapiens)
Result: 9.06

Ask: Tell me its Level of intensity of expression in log2 measured by high-throughput sequencing, FC on human airway epithelial cells (HAECs): hsa-let-7c: human miRNA, SEQ ID No. 159 (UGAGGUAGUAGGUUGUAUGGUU; expressed or natural sequence; listed as Homo sapiens)
Result: 7.31

Ask: Tell me its Level of intensity of expression in log2 measured by high-throughput sequencing, FC on human airway epithelial cells (HAECs): hsa-miR-151-5p: human miRNA, SEQ ID No. 8 (UCGAGGAGCUCACAGUCUAGU; expressed or natural sequence; listed as Homo sapiens)
Result: 10.31

Ask: Tell me its Level of intensity of expression in log2 measured by high-throughput sequencing, FC on human airway epithelial cells (HAECs): hsa-miR-140-3p: human miRNA, SEQ ID No. 5 (UACCACAGGGUAGAACCACGG; expressed or natural sequence; listed as Homo sapiens)
Result: 13.08

Ask: Tell me its Level of intensity of expression in log2 measured by high-throughput sequencing, FC on human airway epithelial cells (HAECs): hsa-miR-141: human miRNA, SEQ ID No. 6 (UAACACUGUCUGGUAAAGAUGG; expressed or natural sequence; listed as Homo sapiens)
Result: 9.58

* * *

System: human airway epithelial cells (HAECs)
Assay Method Text: High-throughput sequencing (HTS) of miRNAs at four stages of differentiation of HAECs
Condition Notes: stage D7; Table VI
In this section we review reported Level of intensity of expression in log2 measured by high-throughput sequencing, D7 values for a set of substances.
The reply should be a number in log2, with the unit left off.

Some substances with recorded Level of intensity of expression in log2 measured by high-throughput sequencing, D7:
Substance	Subject Of Test	Val
hsa-let-7e: human miRNA, SEQ ID No. 160 (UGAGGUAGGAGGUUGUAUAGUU; expressed or natural sequence; listed as Homo sapiens)	human airway epithelial cells (HAECs)	7.80
hsa-miR-193b: human miRNA, SEQ ID No. 14 (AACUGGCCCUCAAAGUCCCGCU; expressed or natural sequence; listed as Homo sapiens)	human airway epithelial cells (HAECs)	12.09
hsa-let-7c: human miRNA, SEQ ID No. 159 (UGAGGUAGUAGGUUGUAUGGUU; expressed or natural sequence; listed as Homo sapiens)	human airway epithelial cells (HAECs)	7.10

Ask: Tell me its Level of intensity of expression in log2 measured by high-throughput sequencing, D7 on human airway epithelial cells (HAECs): hsa-miR-15a: human miRNA, SEQ ID No. 9 (UAGCAGCACAUAAUGGUUUGUG; expressed or natural sequence; listed as Homo sapiens)
Result: 7.52

Ask: Tell me its Level of intensity of expression in log2 measured by high-throughput sequencing, D7 on human airway epithelial cells (HAECs): hsa-miR-27b: human miRNA, SEQ ID No. 30 (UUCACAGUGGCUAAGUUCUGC; expressed or natural sequence; listed as Homo sapiens)
Result: 7.57

* * *

Test system: basal cells and pyramidal cells of the airway epithelium
Assay Method Text: miRNA expression in sorted basal cells versus pyramidal cells (ciliated + secretory), HTS and Agilent chips
Set-up: species or system human
Condition Notes: pyramidal cells (ciliated + secretory)
In this section we review reported Intensity of the level of expression in log2 in pyramidal cells (323(−)) values for a set of substances.
The reply should be a number in log2, with the unit left off.

Substance	Val
hsa-miR-193b: human miRNA, SEQ ID No. 14 (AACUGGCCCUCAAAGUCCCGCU; expressed or natural sequence; listed as Homo sapiens)	0.33
hsa-miR-181a: human miRNA, SEQ ID No. 12 (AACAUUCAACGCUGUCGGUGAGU; expressed or natural sequence; listed as Homo sapiens)	4.59
hsa-miR-25: human miRNA, SEQ ID No. 27 (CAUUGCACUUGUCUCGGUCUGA; expressed or natural sequence; listed as Homo sapiens)	4.70
hsa-let-7g: human miRNA, SEQ ID No. 162 (UGAGGUAGUAGUUUGUACAGUU; expressed or natural sequence; listed as Homo sapiens)	8.22
hsa-miR-30b: human miRNA, SEQ ID No. 33 (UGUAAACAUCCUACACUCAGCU; expressed or natural sequence; listed as Homo sapiens)	7.96
hsa-miR-205: human miRNA, SEQ ID No. 20 (UCCUUCAUUCCACCGGAGUCUG; expressed or natural sequence; listed as Homo sapiens)	5.44

Ask: Please list Intensity of the level of expression in log2 in pyramidal cells (323(−)) recorded for the substance hsa-let-7f: human miRNA, SEQ ID No. 161 (UGAGGUAGUAGAUUGUAUAGUU; expressed or natural sequence; listed as Homo sapiens)
Result: 9.88

Ask: Please list Intensity of the level of expression in log2 in pyramidal cells (323(−)) recorded for the substance hsa-miR-34c-5p: human miRNA, SEQ ID No. 40 (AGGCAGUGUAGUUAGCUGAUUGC; expressed or natural sequence; listed as Homo sapiens)
Result: 10.49

Ask: Please list Intensity of the level of expression in log2 in pyramidal cells (323(−)) recorded for the substance hsa-miR-140-3p: human miRNA, SEQ ID No. 5 (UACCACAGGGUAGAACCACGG; expressed or natural sequence; listed as Homo sapiens)
Result: 3.66

* * *

In this section we review reported Level of intensity of expression in log2 measured by high-throughput sequencing, D0 values for a set of substances.
Test system: human airway epithelial cells (HAECs)
Assay Method Text: High-throughput sequencing (HTS) of miRNAs at four stages of differentiation of HAECs
Condition Notes: stage D0; Table VI
The reply should be a number in log2, with the unit left off.

Substance	Subject Of Test	Val
hsa-miR-574-3p: human miRNA, SEQ ID No. 48 (CACGCUCAUGCACACACCCACA; expressed or natural sequence; listed as Homo sapiens)	human airway epithelial cells (HAECs)	13.64
hsa-let-7g: human miRNA, SEQ ID No. 162 (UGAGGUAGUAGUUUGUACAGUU; expressed or natural sequence; listed as Homo sapiens)	human airway epithelial cells (HAECs)	11.84
hsa-miR-141: human miRNA, SEQ ID No. 6 (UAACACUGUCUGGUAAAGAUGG; expressed or natural sequence; listed as Homo sapiens)	human airway epithelial cells (HAECs)	8.05

Let's switch to this substance now.
Ask: Please list Level of intensity of expression in log2 measured by high-throughput sequencing, D0 recorded for the substance hsa-miR-191: human miRNA, SEQ ID No. 13 (CAACGGAAUCCCAAAAGCAGCUG; expressed or natural sequence; listed as Homo sapiens)
Result: 14.67

* * *

Tested on: human airway epithelial cells (HAECs)
Assay Method Text: Agilent miRNA chips, miRNA expression at four stages of differentiation of HAECs
Condition Notes: stage D0; Table VI
Everything with Level of intensity of expression in log2 measured with the Agilent chips, D0 lower than 8 log2 is NO; everything else, including exactly 8 log2, is YES.

Substance	Subject Of Test	Class Assignment
hsa-miR-92b: human miRNA, SEQ ID No. 49 (UAUUGCACUCGUCCCGGCCUCC; expressed or natural sequence; listed as Homo sapiens)	human airway epithelial cells (HAECs)	NO
hsa-miR-27b: human miRNA, SEQ ID No. 30 (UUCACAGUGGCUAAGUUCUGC; expressed or natural sequence; listed as Homo sapiens)	human airway epithelial cells (HAECs)	YES
hsa-miR-200b: human miRNA, SEQ ID No. 17 (UAAUACUGCCUGGUAAUGAUGA; expressed or natural sequence; listed as Homo sapiens)	human airway epithelial cells (HAECs)	YES
hsa-miR-16: human miRNA, SEQ ID No. 10 (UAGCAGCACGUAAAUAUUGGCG; expressed or natural sequence; listed as Homo sapiens)	human airway epithelial cells (HAECs)	YES
hsa-miR-30e: human miRNA, SEQ ID No. 36 (UGUAAACAUCCUUGACUGGAAG; expressed or natural sequence; listed as Homo sapiens)	human airway epithelial cells (HAECs)	NO

Ask: Evaluate hsa-miR-99a: human miRNA, SEQ ID No. 52 (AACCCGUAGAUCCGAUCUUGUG; expressed or natural sequence; listed as Homo sapiens) : Level of intensity of expression in log2 measured with the Agilent chips, D0 at minimum 8 log2?
Result: NO

Ask: Evaluate hsa-miR-365: human miRNA, SEQ ID No. 41 (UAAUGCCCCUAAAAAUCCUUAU; expressed or natural sequence; listed as Homo sapiens) : Level of intensity of expression in log2 measured with the Agilent chips, D0 at minimum 8 log2?
Result: YES

Ask: Evaluate hsa-let-7e: human miRNA, SEQ ID No. 160 (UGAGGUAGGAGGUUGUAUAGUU; expressed or natural sequence; listed as Homo sapiens) : Level of intensity of expression in log2 measured with the Agilent chips, D0 at minimum 8 log2?
Result: YES
